Listed here are molecules together with their documented pKi.
molecular target: S-adenosylmethionine synthase isoform type-1 (Rattus norvegicus); assay: Compound was evaluated for its inhibitory activity against recombinant S-adenosyl L-Methionine synthetase (alpha-isoform) in rat liver
Sequence (P13444 whole entry, canonical isoform): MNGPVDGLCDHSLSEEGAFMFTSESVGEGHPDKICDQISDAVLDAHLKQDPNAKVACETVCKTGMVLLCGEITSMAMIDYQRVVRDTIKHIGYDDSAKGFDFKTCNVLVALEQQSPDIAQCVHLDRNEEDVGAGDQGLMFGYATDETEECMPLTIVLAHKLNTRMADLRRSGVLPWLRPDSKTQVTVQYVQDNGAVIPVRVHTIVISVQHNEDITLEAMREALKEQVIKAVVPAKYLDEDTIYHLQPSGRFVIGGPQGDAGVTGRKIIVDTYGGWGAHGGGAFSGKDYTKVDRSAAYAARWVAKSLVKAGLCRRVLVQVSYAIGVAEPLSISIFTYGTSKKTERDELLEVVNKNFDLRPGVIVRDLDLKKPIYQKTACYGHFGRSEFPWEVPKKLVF
Reminder that pKi is minus the log10 of a molar concentration.

Below, each entry is followed by its recorded pKi result.
NC1(C(=O)O)CCOCC1 3.00
NC1(C(=O)O)CCCC1 3.29
N[C@]1(C(=O)O)CCOC1 3.12
NC1(C(=O)O)CCSCC1 2.52

Identify the reported pKi for the following entry. `CO/C=C\[C@H](N)C(=O)O`
4.25

Identify the reported pKi for the following entry. `N[C@]1(C(=O)O)CCSC1`
2.98

// data source = ChEMBL document CHEMBL1130856
